pIC50: −log10 of the molar value.
These records show pIC50 for PDE V (Homo sapiens).

Some solved entries appear below for comparison.
>>> print(df.to_string())
                               smilesrecord  readoutlabel  measuredvalue
0  CCN1C(=O)c2c(nc(C#Cc3ccccc3)n2Cc2cc(Cl)c(OC)c(Cl)c2)N2CC3(CCCC3)N=C12         pIC50         ≥ 8.30
1  CCN1C(=O)c2c(nc(NC3CCOCC3)n2Cc2ccc(O)c(Br)c2)N2CCN=C12         pIC50         ≥ 8.00
2  CCN1C(=O)c2c(nc(Br)n2Cc2cc(Cl)c3c(c2)CCO3)N2C[C@@H](Cc3ccccc3)N=C12         pIC50         ≥ 8.30
3  CCN1C(=O)c2c(nc(NC3CCOCC3)n2Cc2ccc(OC)c(Br)c2)N2CCCN=C12         pIC50         ≥ 8.30

Please look at the items below and tell me pIC50 for each one, in order.
1. CCN1C(=O)c2c(nc(Br)n2Cc2cc(Br)c3c(c2)CCO3)N2C[C@@H](Cc3ccccc3)N=C12
2. CCN1C(=O)c2nc(C#Cc3ccccc3)n(Cc3ccc(OC(C)=O)cc3)c2N2CC3(CCCC3)N=C12
3. CCN1C(=O)c2c(nc(NC3CCOCC3)n2Cc2cc(Br)c3c(c2)CCO3)N2CCN=C12

Solution:
["≥ 8.00", "≥ 8.30", "~7.74"]

----------
PDE V (Homo sapiens, UniProt O76074) data, read-out pIC50
pIC50: −log10 of the molar value.

>>> df
                                   molecule                           assaysystem  measuredvalue
0  CCN1C(=O)c2c(nc(N[C@@H]3CCC[C@H]3O)n2Cc2ccc(OC)c(Br)c2)N2C1=NCC2C (stereo partly shown) [Compound 56]  PDE V (Homo sapiens, UniProt O76074)         ≥ 8.30
1  CCN1C(=O)c2c(nc(NC3CCCCC3)n2Cc2ccc(O)c(Cl)c2)N2C1=N[C@@H]1CCC[C@@H]12 [Compound 5]  PDE V (Homo sapiens, UniProt O76074)         ≥ 8.22
2  CCN1C(=O)c2c(nc(NC3CCOCC3)n2Cc2cc(Cl)c3c(c2)CCO3)N2CCN=C12 [Compound 35]  PDE V (Homo sapiens, UniProt O76074)          ~7.74

Please examine the following record next.
Exercise: Find pIC50 (PDE V (Homo sapiens, UniProt O76074)) for the entry CCN1C(=O)c2c(ncn2Cc2cc(Cl)c3c(c2)CCO3)N2C[C@@H](Cc3ccccc3)N=C12 [Compound 6]
Solution: ≥ 8.30
